Target: SARS-CoV 3CLpro (Severe acute respiratory syndrome coronavirus, UniProt P0C6X7)
Test: biochemical
property name: pIC50
Interpret pIC50 as the negative base-10 log of the concentration measured in mol/L.

Reference set, count: 3
CC(C)C[C@H](NC(=O)c1cc2ccccc2[nH]1)C(=O)NN(CCC(N)=O)C(=O)CCl [Example 28] :: 7.80
CC(C)C[C@H](NC(=O)c1cc2ccccc2[nH]1)C(=O)NN(C[C@@H]1CCNC1=O)C(=O)CCl (single isomer, unassigned) [Example 51-A] :: 7.82
CC1(C[C@H](NC(=O)c2cc(C(F)F)on2)C(=O)NN(C[C@@H]2CCNC2=O)C(=O)[C@H](F)Cl)CC1 [Example 100] :: 7.51

Now consider a different compound.
May I ask what pIC50 has been recorded for Cc1cc(C(=O)N[C@@H](CC2(C)CC2)C(=O)NN(C[C@@H]2CCNC2=O)C(=O)[C@H](F)Cl)no1 [Example 70] ? 7.03

###

Target: SARS-CoV-2 3CLpro (Severe acute respiratory syndrome coronavirus 2, UniProt P0DTD1)
Assay: biochemical
Settings: read-out: IC50 (μM), SARS-CoV-2 3CLPro assay
property name: log10 IC50 (log10 of the value in µM)
Give log10 of IC50, with IC50 taken in µM.

CC(C)C[C@H](NC(=O)OCc1ccccc1)C(=O)NN(CC1CCNC1=O)C(=O)CCl (some centres unmarked) [Example 18] :: -1.77
CC(C)C[C@H](NC(=O)OC(C)(C)C)C(=O)NN(CCC(N)=O)C(=O)CCl [Example 26] :: -0.17
CC(C)C[C@H](NC(=O)OCc1ccccc1)C(=O)NN(CCC(N)=O)C(=O)C(F)Cl (some centres unmarked) [Example 17] :: -1.05
NC(=O)CCN(NC(=O)[C@H](CC1CCCCC1)NC(=O)OCc1ccccc1)C(=O)CF [Example 15] :: 0.08
CC(C)C[C@H](NC(=O)OCc1ccccc1)C(=O)NN(CCC(N)=O)C(=O)C(C)Cl (some centres unmarked) [Example 4] :: -0.48

May I ask what log10 IC50 has been recorded for CC(C)C[C@H](NC(=O)c1nc2ccccc2[nH]1)C(=O)NN(CCC(N)=O)C(=O)CCl [Example 42] ? -2.30

May I ask what log10 IC50 has been recorded for Cc1cc(C(=O)N[C@@H](CC2CCCCC2)C(=O)NN(CCC(N)=O)C(=O)CCl)no1 [Example 48] ? -2.40

May I ask what log10 IC50 has been recorded for COc1cccc2[nH]c(C(=O)N[C@@H](CC3CCCCC3)C(=O)NN(CCC(N)=O)C(=O)[C@H](F)Cl)cc12 [Example 56-B] ? -2.52

###

Biological target: SARS-CoV-2 3CLpro (Severe acute respiratory syndrome coronavirus 2)
Assay: biochemical
Conditions: IC50 (μM), SARS-CoV-2 3CLPro assay
property name: IC50 (µM)
Just the number please, in µM, no unit attached.

COc1cccc(NCC(=O)N[C@@H](CC(C)C)C(=O)NN(CCC(N)=O)C(=O)[C@H](F)Cl)c1 (single isomer, unassigned) :: 0.9
CC(C)C[C@H](NC(=O)c1cc2ccccc2[nH]1)C(=O)NN(CCC(N)=O)C(=O)[C@H](F)Cl (single isomer, unassigned) :: 0.034
CC(C)C[C@H](NC(=O)c1nc2ccccc2[nH]1)C(=O)NN(CCC(N)=O)C(=O)[C@H](F)Cl (single isomer, unassigned) :: 0.007
CC(C)C[C@H](NC(=O)c1nc2ccccc2[nH]1)C(=O)NN(CCC(N)=O)C(=O)[C@@H](F)Cl (single isomer, unassigned) :: 0.043
NC(=O)CCN(NC(=O)[C@H](CC1CCC1)NC(=O)c1nc2ccccc2[nH]1)C(=O)C(F)Cl (mixture of isomers) :: 0.034
NC(=O)CCN(NC(=O)[C@H](CC1CCCCC1)NC(=O)OCc1ccccc1)C(=O)[C@@H](F)Cl (single isomer, unassigned) :: 0.053

Now consider a different compound.
May I ask what IC50 has been recorded for CC(C)C[C@H](NC(=O)c1ncc[nH]1)C(=O)NN(CCC(N)=O)C(=O)C(F)Cl (mixture of isomers) ? 0.66
